- System: LNCaP
- Assay overview: Downregulation of prostate specific antigen secretion in human LNCAP cells
- Assay type: functional, cell-based
Measurement name: IC50 (µM)
Provide only the numeric value, understood in µM.

Incoming: Suppose we examine the compound O=c1cc(-c2ccc(O)c(O)c2)oc2cc(O)cc(O)c12 ; what IC50 value has been reported?
Outgoing: 5

====

The following compounds each carry a recorded pKi for Xanthine dehydrogenase/oxidase (Homo sapiens).
To interpret pKi, take it as minus log10 of a concentration measured in moles per litre.

Incoming: Reported pKi for Xanthine dehydrogenase/oxidase (Homo sapiens), given O=c1cc(-c2ccc(O)c(O)c2)oc2cc(O)cc(O)c12 ?
Outgoing: 5.54

Incoming: Please state recorded pKi (tested on Xanthine dehydrogenase/oxidase (Homo sapiens)) of O=c1cc(-c2ccc(O)cc2)oc2cc(O)cc(O)c12
Sequence (P47989 whole entry): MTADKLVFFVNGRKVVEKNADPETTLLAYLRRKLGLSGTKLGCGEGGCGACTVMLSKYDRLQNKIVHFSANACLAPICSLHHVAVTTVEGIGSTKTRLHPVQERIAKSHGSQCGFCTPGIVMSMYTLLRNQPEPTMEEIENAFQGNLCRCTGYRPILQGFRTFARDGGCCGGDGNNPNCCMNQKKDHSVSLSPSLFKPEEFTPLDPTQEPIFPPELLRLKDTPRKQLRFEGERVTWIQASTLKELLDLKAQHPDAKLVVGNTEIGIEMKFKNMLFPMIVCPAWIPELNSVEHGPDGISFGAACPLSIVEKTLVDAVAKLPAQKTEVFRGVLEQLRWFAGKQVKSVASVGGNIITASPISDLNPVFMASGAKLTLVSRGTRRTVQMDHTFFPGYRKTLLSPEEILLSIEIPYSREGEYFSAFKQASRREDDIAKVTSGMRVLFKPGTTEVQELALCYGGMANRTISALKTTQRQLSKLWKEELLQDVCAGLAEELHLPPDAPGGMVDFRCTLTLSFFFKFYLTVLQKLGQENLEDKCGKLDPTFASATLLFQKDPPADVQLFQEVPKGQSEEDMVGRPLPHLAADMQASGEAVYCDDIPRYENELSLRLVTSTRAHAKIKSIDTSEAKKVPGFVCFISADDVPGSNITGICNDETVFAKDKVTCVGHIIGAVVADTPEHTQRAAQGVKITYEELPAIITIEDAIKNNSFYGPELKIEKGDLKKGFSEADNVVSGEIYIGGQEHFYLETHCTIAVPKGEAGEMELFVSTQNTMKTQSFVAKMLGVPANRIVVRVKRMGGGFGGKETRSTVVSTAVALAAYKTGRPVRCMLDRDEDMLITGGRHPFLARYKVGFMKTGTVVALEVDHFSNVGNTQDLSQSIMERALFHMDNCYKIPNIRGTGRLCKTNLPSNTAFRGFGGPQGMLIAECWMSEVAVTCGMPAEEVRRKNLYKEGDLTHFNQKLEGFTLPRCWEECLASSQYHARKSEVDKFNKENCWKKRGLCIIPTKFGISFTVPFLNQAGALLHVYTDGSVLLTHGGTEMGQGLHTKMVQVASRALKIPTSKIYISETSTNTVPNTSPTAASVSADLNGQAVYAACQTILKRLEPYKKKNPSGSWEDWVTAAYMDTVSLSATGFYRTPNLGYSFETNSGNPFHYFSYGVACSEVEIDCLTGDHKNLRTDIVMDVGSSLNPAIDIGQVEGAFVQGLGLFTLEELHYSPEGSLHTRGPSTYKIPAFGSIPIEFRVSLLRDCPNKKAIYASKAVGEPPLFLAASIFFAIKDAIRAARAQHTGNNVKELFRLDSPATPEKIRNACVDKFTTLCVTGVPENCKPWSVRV
Outgoing: 6.28

====

- Tested target: UniProtKB P51649
- Sequence (P51649 whole entry): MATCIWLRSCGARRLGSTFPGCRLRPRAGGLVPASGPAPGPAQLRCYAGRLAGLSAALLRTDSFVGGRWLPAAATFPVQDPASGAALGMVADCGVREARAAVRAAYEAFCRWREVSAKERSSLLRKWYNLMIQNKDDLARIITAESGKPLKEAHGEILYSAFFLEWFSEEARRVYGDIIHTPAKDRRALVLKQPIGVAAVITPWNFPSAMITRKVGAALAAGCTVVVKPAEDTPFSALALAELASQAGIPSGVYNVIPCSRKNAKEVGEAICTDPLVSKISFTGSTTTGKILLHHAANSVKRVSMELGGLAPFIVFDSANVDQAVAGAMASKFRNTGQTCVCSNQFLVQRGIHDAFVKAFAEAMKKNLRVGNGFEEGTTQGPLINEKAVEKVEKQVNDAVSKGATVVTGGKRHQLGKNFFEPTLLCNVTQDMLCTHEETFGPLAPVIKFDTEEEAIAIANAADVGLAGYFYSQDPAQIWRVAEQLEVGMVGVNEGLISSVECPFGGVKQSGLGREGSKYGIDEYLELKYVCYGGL
Measurement name: IC50 (mM)
Reply with just the number (in mM).

Incoming: What does the data say about its IC50? Entry: O=c1cc(-c2ccc(O)cc2)oc2cc(O)c(O)c(O)c12
Outgoing: 7.2

====

A set of compounds tested on Acetylcholinesterase (Homo sapiens, UniProt P22303), with measured pIC50:
Kindly note that pIC50 refers to -log10 of the concentration in mol/L and answer with the value alone.

# Smi, pIC50
measured = [
    ("O=c1cc(-c2ccc(CN3CCCCC3)cc2)oc2ccccc12", 7.26),
]

# context switch: different compound, same pIC50
Incoming: Entry COc1cc2oc(-c3ccc(CN4CCCC4)cc3)cc(=O)c2cc1OC : reported pIC50 = ?
Outgoing: 7.47

====

- Tested target: Cystic fibrosis transmembrane conductance regulator (Homo sapiens, UniProt P13569)
- Sequence (P13569 whole entry): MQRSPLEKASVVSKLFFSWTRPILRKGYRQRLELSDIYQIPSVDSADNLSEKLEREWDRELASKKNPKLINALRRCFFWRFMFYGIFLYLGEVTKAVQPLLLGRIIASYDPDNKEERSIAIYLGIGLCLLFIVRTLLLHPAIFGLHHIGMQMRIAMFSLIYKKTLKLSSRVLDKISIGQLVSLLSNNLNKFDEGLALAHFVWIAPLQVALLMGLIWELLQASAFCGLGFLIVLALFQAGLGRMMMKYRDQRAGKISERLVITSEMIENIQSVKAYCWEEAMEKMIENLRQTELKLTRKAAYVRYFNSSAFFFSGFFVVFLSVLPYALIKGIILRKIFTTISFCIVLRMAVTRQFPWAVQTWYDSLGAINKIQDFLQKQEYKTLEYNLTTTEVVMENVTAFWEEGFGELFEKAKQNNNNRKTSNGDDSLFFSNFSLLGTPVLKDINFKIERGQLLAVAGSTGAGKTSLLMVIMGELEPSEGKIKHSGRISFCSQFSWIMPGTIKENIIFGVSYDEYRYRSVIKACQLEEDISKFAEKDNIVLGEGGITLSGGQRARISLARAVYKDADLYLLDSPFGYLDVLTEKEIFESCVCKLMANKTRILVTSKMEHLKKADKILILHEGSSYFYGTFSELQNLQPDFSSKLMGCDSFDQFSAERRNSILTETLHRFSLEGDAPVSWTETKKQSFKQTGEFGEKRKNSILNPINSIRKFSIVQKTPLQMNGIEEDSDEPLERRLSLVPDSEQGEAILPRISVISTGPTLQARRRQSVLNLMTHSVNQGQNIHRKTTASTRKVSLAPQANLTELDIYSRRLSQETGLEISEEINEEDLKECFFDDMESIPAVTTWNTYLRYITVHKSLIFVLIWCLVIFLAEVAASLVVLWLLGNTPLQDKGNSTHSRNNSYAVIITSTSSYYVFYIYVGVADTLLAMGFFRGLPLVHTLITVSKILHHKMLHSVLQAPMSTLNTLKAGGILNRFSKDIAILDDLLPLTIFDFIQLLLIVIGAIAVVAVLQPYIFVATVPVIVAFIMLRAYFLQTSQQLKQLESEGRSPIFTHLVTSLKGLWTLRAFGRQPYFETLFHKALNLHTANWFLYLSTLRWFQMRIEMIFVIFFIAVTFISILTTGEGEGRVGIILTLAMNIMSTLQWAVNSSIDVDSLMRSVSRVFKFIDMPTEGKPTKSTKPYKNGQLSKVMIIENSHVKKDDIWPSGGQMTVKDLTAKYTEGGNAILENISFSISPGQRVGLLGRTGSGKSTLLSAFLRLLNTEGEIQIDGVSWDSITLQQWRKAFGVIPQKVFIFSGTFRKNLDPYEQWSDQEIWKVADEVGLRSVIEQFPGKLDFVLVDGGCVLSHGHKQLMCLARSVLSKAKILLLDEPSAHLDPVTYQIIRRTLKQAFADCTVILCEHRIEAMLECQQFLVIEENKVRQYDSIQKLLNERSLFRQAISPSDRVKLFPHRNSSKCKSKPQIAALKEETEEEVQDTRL
- Assay overview: Stimulation of CFTR (unknown origin)
Measurement name: pEC50
Reminder that pEC50 is minus the log10 of a molar concentration.

Incoming: Recorded pEC50 for O=c1cc(-c2ccc(O)cc2)oc2cc(O)cc(O)c12 , please?
Outgoing: 5.05

====

- System: Plasmodium falciparum
- Assay overview: Antimicrobial activity against Plasmodium falciparum
- Assay type: functional, organism-based
Measurement name: IC50 (µM)
Please give a number only; it is taken to be in µM.

# Smi, Unit tag, IC50
records = [
    ("O=c1cc(-c2ccc(Oc3c(O)cc(O)c4c(=O)cc(-c5ccc(O)cc5)oc34)cc2)oc2cc(O)cc(O)c12", "µM", 0.48),
]

Next, consider the following compound.
Incoming: Quick one: IC50 for O=C1c2c(O)cc(O)cc2O[C@H](c2ccc(O)cc2)[C@H]1[C@@H]1C(=O)c2c(O)cc(O)cc2O[C@H]1c1ccc(O)cc1 ?
Outgoing: 7.3
